Target: Peroxisome proliferator-activated receptor gamma (Homo sapiens) (UniProt P37231)
Sequence (P37231 whole entry, looked up): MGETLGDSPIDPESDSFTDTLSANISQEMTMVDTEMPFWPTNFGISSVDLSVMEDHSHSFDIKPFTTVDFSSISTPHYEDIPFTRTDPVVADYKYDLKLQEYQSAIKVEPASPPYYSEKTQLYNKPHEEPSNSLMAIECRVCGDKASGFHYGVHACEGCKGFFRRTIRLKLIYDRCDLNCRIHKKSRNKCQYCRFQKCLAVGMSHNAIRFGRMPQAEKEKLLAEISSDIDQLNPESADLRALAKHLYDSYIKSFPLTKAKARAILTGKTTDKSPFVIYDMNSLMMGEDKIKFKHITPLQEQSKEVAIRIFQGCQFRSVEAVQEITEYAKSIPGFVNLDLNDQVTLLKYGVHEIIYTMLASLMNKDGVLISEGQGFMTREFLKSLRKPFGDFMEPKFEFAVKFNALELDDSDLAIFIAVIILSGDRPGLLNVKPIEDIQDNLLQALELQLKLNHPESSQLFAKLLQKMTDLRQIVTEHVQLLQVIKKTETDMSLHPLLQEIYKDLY
Experiment: OT_PPARg_PPARgSRC1_1440: Odyssey Thera (OT) 24-hour Protein-Complementation Assay for Peroxisome Proliferator-activated Receptor Gamma/ SRC-1 Co-activator (AID 2283388);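 further: nuclear to cytoplasmic ratio of reconstituted Venus YFP fluorescence in fixed imaged cells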
Description: OT_PPARg_PPARgSRC1_1440 is a cell-based assay that uses HEK293T, a human kidney cell line, with measurements taken at 24 hours after chemical dosing in a 384-well plate.OT_PPARg_PPARgSRC1_1440 is one of one assay component(s) measured or calculated from the OT_PPARg_PPARgSRC1_1440 assay. […] This assay endpoint, OT_PPARg_PPARgSRC1_1440, was analyzed in the positive analysis fitting direction relative to DMSO as the negative control and baseline of activity. […]
Calls of active or inactive are those of the source. How the source made its calls: active means hit-call score of the fitted dose curve at least 0.9, where 1 is the maximum; inconclusive means response in the unintended direction; inactive means score below 0.9.
I would appreciate it if you answered using one of these outcomes: true (1) for active, false (0) for inactive

Some solved cases for reference:
> print(dat)
                                    compound  assigned.class
 1            Cc1ccc(C(C)c2ccc(C)c(C)c2)cc1C       false (0)
 2  O=C(OCC1CCC2OC2C1)C1CCC2OC2C1 (centres undefined)       false (0)
 3                   CCOC(=O)Cc1cccc2ccccc12       false (0)
 4  CCCCCCCCO[C@@H]1O[C@H](CO)[C@@H](O)[C@H](O)[C@H]1O       false (0)
 5                   Cc1cc(C)c(C(=O)O)c(C)c1       false (0)
 6  CC1=NN(c2cc(S(=O)(=O)O)ccc2Cl)C(=O)C1N=Nc1ccccc1 (centres undefined)       false (0)
 7  CC(C)C1=CC2=CC[C@@H]3[C@](C)(CCC[C@@]3(C)C(=O)O)[C@H]2CC1       false (0)
 8       CC=C1CC2C=CC1C2 (centres undefined)       false (0)
 9       CN(C)c1ccc(C(=N)c2ccc(N(C)C)cc2)cc1        true (1)
10                                c1c[nH]cn1       false (0)

Give the logged outcome of this assay for the following compound: CC(C)(C)c1ccc(OC(=O)c2ccccc2O)cc1
false (0)

Hi, do you know how CCOC(=O)CC came out in this test?
false (0)

Any idea what this test logged for OC1CCCC1 ?
false (0)

Hi, do you know how CNC(=S)NN came out in this test?
false (0)

###

molecular target: Hypoxia-inducible factor 1-alpha (Homo sapiens); assay: ATG_HIF1a_CIS: Attagene CIS-FACTORIAL HepG2 Assay for human Hypoxia Inducible Factor 1 (HIF1A) (AID 2282951); details: HepG2 Attagene cis-factorial HIF1a reporter transcription; actives raise or lower the signal
Calls of active or inactive are those of the source. Rule for the calls: active = hit-call score of the fitted dose curve at least 0.9, where 1 is the maximum; inactive = score below 0.9.
readout: outcome

Example cases with answers are listed next.
> print(dat)
                              molecule  value.reported
1                            O=C1CCCC1        inactive
2      O=c1n(CCO)c(=O)n(CCO)c(=O)n1CCO        inactive
3                                OCCCS        inactive
4                     CCCCCCCOC(=O)CCC        inactive
5  O=c1[nH]c(=O)c2[nH]c(=O)[nH]c2[nH]1        inactive
6             COC(=O)c1sccc1S(N)(=O)=O        inactive

Go through the list and state outcome for each entry.
1. CC(C)(C)C(=O)CCc1ccc(Cl)cc1
2. CCCCCCCCCCCCCCCCCC#N
3. CCCCC(CC)CCC(CC(C)C)OS(=O)(=O)O (stereo not given)
4. C=C(C)CCO

1: inactive; 2: inactive; 3: inactive; 4: inactive

Value sought for every listed molecule: outcome.
1. Cc1ccc(OC(=O)CC(C)C)cc1
2. CC/C=C\CCOC(=O)CCCCC
3. CCOC(=O)c1ccc(N(C)C)cc1
4. CCN(CC)c1ccc(C(=O)c2ccccc2C(=O)O)c(O)c1
5. O=C1CCC(=O)N1Cl

1: inactive; 2: inactive; 3: inactive; 4: inactive; 5: inactive
